Target System: 5-hydroxytryptamine receptor 2A (Homo sapiens, UniProt P28223); note: assay procedure not described here
Sequence (P28223 whole entry): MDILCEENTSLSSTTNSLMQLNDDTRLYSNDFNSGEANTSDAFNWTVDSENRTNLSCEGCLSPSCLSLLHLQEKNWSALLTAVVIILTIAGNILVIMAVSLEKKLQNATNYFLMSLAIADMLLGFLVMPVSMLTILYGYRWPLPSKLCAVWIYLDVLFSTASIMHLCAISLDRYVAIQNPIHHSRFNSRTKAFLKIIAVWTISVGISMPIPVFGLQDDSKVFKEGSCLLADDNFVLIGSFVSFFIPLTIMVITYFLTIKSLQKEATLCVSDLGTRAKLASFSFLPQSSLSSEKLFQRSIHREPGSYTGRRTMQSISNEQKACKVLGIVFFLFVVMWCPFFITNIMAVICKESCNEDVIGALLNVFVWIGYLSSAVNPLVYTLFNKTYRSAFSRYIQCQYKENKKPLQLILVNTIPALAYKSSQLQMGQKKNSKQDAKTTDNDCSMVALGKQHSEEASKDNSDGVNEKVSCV
Type: functional, cell-based
For each entry below, report its AC50 value.

Task: AC50 lookup needed for CCCC(=O)O[C@]1(C(=O)CO)CC[C@H]2[C@@H]3CCC4=CC(=O)CC[C@]4(C)[C@H]3[C@@H](O)C[C@@]21C [HYDROCORTISONE BUTYRATE] , thanks.
Result: > 10 µM

Task: Which AC50 is reported for this compound? O=C(O)CCCCCCCC(=O)O [AZELAIC ACID]
Result: > 10 µM

Task: For the compound shown here, CC(C(=O)O)c1ccc(N2Cc3ccccc3C2=O)cc1 (stereo not given) [INDOPROFEN] , give the reported AC50.
Result: > 30 µM

Task: What does the record list as AC50 for CCC(C(=O)O)c1ccc(N2Cc3ccccc3C2=O)cc1 (stereo not given) [INDOBUFEN] ?
Result: > 30 µM

Task: Reported AC50 for c1cnc(N2CCN(Cc3ccc4c(c3)OCO4)CC2)nc1 [PIRIBEDIL] : what is it?
Result: > 30 µM

Task: Looking for the measured AC50 of Cc1cc(O)c(C(=O)N[C@@H](C(=O)N[C@@H]2C(=O)N3C(C(=O)O)=C(CSc4nnnn4C)CS[C@H]23)c2ccc(O)cc2)cn1 [CEFPIRAMIDE] , can you help?
Result: > 30 µM

Task: Any idea what its AC50 is? The compound is CC(C)(C)NCC(O)COc1cccc2c1CCC(=O)N2 (stereo not given) [CARTEOLOL]
Result: > 10 µM

Task: Given CCCCCNC(=N)N/N=C/c1c[nH]c2ccc(OC)cc12 [TEGASEROD] , state its recorded AC50.
Result: > 30 µM

Task: Recorded AC50 of `CCOC(=O)[C@H](CCc1ccccc1)N[C@@H](C)C(=O)N1C(=O)N(C)C[C@H]1C(=O)O` , please.
Result: > 30 µM

Task: Could you tell me which AC50 is on file for COc1ccc2c3c1O[C@H]1C(=O)CC[C@@]4(O)[C@@H](C2)N(C)CC[C@]314 [OXYCODONE] ?
Result: > 30 µM

Task: Need AC50 of CCN(CC)C(=O)N[C@H]1C[C@@H]2c3cccc4[nH]cc(c34)C[C@H]2N(C)C1 [TERGURIDE] , thanks.
Result: 0.48 µM

Task: Value lookup for AC50; key = CC(Oc1c(Cl)cccc1Cl)C1=NCCN1 (stereo not given) [LOFEXIDINE]
Result: > 30 µM

Task: Entry CC[C@H]1[C@@H](O)[C@@H]2[C@H](CC[C@]3(C)[C@@H]([C@H](C)CCC(=O)O)CC[C@@H]23)[C@@]2(C)CC[C@@H](O)C[C@@H]12 [OBETICHOLIC ACID] : reported AC50 = ?
Result: > 30 µM

Task: Tell me the measured AC50 of COC(=O)C1=C(C)NC(C)=C(C(=O)OC(C)(C)CN(C)CCC(c2ccccc2)c2ccccc2)C1c1cccc([N+](=O)[O-])c1 (stereo not given) [LERCANIDIPINE] , please.
Result: > 30 µM

Task: Recorded AC50 of CCC1(CC)C(=O)NCC(C)C1=O (stereo not given) [METHYPRYLON] , please.
Result: > 30 µM

Task: Would you mind telling me what AC50 value was observed for CN1CCN(C2=Nc3ccccc3Sc3ccc(Cl)cc32)CC1 [CLOTHIAPINE] ?
Result: > 30 µM

Task: What does the data say about its AC50? Entry: COc1ccc(CC(C)(C)NC[C@H](O)c2cc(O)cc3c2OCC(=O)N3)cc1 [OLODATEROL]
Result: > 30 µM

Task: Could you tell me which AC50 is on file for Cc1cccc(C(C)c2cnc[nH]2)c1C (stereo not given) [MEDETOMIDINE] ?
Result: > 30 µM

Task: Dear colleague, I am looking for the recorded AC50 of the following compound: COc1ccc(C(=O)Nc2ccccc2CCC2CCCCN2C)cc1 (stereo not given) [ENCAINIDE]
Result: > 30 µM

Task: Which AC50 value is on record for O=C1Nc2ccc(Cl)cc2[C@@](C#CC2CC2)(C(F)(F)F)O1 [EFAVIRENZ] ?
Result: > 30 µM

Task: Fill in the blank: the reported AC50 of C=CCc1ccccc1OCC(O)CNC(C)C (stereo not given) [ALPRENOLOL] is ____.
Result: > 30 µM

Task: GET /values?readout=AC50&item= CN(C)CCc1c[nH]c2ccc(C[C@H]3COC(=O)N3)cc12 [ZOLMITRIPTAN]
Result: 14 µM

Task: Quick check: AC50 of CCCc1nc(C(C)(C)O)c(C(=O)OCc2oc(=O)oc2C)n1Cc1ccc(-c2ccccc2-c2nnn[nH]2)cc1 [OLMESARTAN MEDOXOMIL] ?
Result: > 30 µM

Task: // AC50 lookup, key: `CCCCN1C[C@H](O)[C@@H](O)[C@H](O)[C@H]1CO`
Result: > 30 µM

Task: Would you mind telling me what AC50 value was observed for NC(=O)OCC(COC(N)=O)c1ccccc1 [FELBAMATE] ?
Result: > 10 µM

Task: Fill blank: measured AC50 of the compound CNC(=O)c1ccccc1Sc1ccc2c(/C=C/c3ccccn3)n[nH]c2c1 [AXITINIB] is ____.
Result: > 30 µM

Task: // returns reported AC50 for input O=C1C(O)=C([C@H]2CC[C@H](c3ccc(Cl)cc3)CC2)C(=O)c2ccccc21 [ATOVAQUONE]
Result: > 30 µM

Task: Entry under review: CC(=O)NCCCS(=O)(=O)O [ACAMPROSATE] . Reported AC50?
Result: > 30 µM

Task: Quick one: AC50 of COC(=O)[C@H]1[C@H]2C[C@@H]3c4[nH]c5cc(OC)ccc5c4CCN3C[C@H]2C[C@@H](OC(=O)/C=C/c2cc(OC)c(OC)c(OC)c2)[C@@H]1OC [RESCINNAMINE] ?
Result: > 10 µM

Task: Please give the measured AC50 for this compound: Cc1oc(=O)oc1CN1CCN(c2cc3c(cc2F)c(=O)c(C(=O)O)c2n3C(C)S2)CC1 (stereo not given) [PRULIFLOXACIN]
Result: > 30 µM

Task: // query AC50 value for entry C=CCN1CCCC1CNC(=O)c1cc(S(N)(=O)=O)cc(OC)c1OC (stereo not given) [VERALIPRIDE]
Result: > 30 µM

Task: Requested read-out: AC50. Entry: `COc1ccccc1N1CCN(CCCNc2cc(=O)n(C)c(=O)n2C)CC1`
Result: > 30 µM

Task: Returns the measured AC50 for the input compound. Input: CCCCc1ncc(/C=C(\Cc2cccs2)C(=O)O)n1Cc1ccc(C(=O)O)cc1 [EPROSARTAN]
Result: > 30 µM

Task: AC50 lookup needed for `COc1ccc(-c2ccc3cc(C(=O)O)ccc3c2)cc1C12CC3CC(CC(C3)C1)C2` , thanks.
Result: > 30 µM

Task: Entry under review: C=CCN1C[C@H](C(=O)N(CCCN(C)C)C(=O)NCC)C[C@@H]2c3cccc4[nH]cc(c34)C[C@H]21 [CABERGOLINE] . Reported AC50?
Result: 0.0626 µM

====

Please respond with reported AC50 for every item in the list.

Task: What reported AC50 corresponds to CC(C)(C)NC[C@H](O)COc1ccccc1C1CCCC1 [PENBUTOLOL] on Sodium-dependent serotonin transporter (Homo sapiens)?
Result: 5.53 µM

Task: API: value(readout= AC50, system= Sodium-dependent serotonin transporter (Homo sapiens), query= CC(C)C[C@H]1C(=O)N2CCC[C@H]2[C@]2(O)O[C@](NC(=O)[C@@H]3C[C@@H]4c5cccc6[nH]cc(c56)C[C@H]4N(C)C3)(C(C)C)C(=O)N12 [DIHYDROERGOCRYPTINE] ); note: assay procedure not described here
Result: > 30 µM

Task: Fill in the recorded AC50 for this compound, with Sodium-dependent serotonin transporter (Homo sapiens) as test system: C=CCc1ccccc1OCC(O)CNC(C)C (stereo not given) [ALPRENOLOL]
Sequence (P31645 whole entry): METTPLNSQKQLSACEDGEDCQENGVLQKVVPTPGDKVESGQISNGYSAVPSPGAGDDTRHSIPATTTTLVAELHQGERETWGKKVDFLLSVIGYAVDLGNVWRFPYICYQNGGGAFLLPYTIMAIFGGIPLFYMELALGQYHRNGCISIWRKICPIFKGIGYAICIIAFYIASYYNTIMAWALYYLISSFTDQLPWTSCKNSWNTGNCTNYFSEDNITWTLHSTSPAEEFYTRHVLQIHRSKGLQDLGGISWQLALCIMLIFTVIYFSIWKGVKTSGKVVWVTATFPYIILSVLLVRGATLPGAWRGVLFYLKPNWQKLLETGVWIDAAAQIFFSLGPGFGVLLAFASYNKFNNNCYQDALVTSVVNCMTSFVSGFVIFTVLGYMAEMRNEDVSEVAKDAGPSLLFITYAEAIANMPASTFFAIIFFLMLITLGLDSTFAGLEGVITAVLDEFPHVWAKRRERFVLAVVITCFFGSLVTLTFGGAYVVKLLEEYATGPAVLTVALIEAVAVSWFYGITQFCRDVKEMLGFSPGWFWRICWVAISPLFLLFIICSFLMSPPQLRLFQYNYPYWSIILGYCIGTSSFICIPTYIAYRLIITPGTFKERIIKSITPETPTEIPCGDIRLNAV
Result: > 0.3 µM

Task: Item: O=C(CCNNC(=O)c1ccncc1)NCc1ccccc1 [NIALAMIDE] Test system: Sodium-dependent serotonin transporter (Homo sapiens) Read-out: AC50 Value: ?; note: assay procedure not described here
Result: > 30 µM

Task: Lab note: need AC50 with Sodium-dependent serotonin transporter (Homo sapiens) for entry CN(C)CCn1nnnc1SCC1=C(C(=O)O)N2C(=O)[C@@H](NC(=O)Cc3csc(N)n3)[C@H]2SC1 [CEFOTIAM] , please look it up.
Result: > 30 µM
